SYSTEM NAME: Recombinant active human SCCE (Homo sapiens)
PROTOCOL SUMMARY: SCCE Inhibitor Test (chromogenic substrate S-2586, absorbance at 405 nm)
SETTINGS: 10 min preincubation, 1 mM S-2586, 60 min, 37° C, pH 7.2
pIC50: −log10 of the molar value.
REPORTED ENDPOINT: pIC50

Sample answers from the record:
O=c1oc(-c2ccc([N+](=O)[O-])cc2Cl)nc2cc(Cl)ccc12 [Compound I-2]
7.00
COc1cc2nc(-c3ccccc3Cl)oc(=O)c2cc1OC [Compound I-16]
6.77
O=c1oc(-c2cccs2)nc2sc3c(c12)CCCC3 [II-19]
6.00
COc1cccc(-c2nc3sc4c(c3c(=O)o2)CCCC4)c1 [II-20]
5.70

[I] O=c1nc(-c2cccs2)oc2ccc(Cl)cc12 [Compound I-17]
[II] COc1cc2nc(-c3ccccc3F)oc(=O)c2cc1OC [Compound I-11]
Incoming: Which record would sort first by descending pIC50, I or II ? Could you answer with the label of the item you picked?
Outgoing: I

[P] O=c1oc(-c2ccccc2Cl)nc2ccsc12 [II-5]
[Q] O=c1oc(-c2ccccc2)nc2sc3c(c12)CCC3 [II-12]
Incoming: Out of P and Q , name the one with the higher pIC50. Field: selected label. Fill in the label of the entry you choose.
Outgoing: Q
(Q: 6.70, P: 6.30)

====

SYSTEM NAME: Recombinant active human SCCE (Homo sapiens, UniProt P49862)
Construct: made in house; host or cells: murine C127 cells transfected with a BPV vector (murine MT promoter)
Sequence (P49862 30-253): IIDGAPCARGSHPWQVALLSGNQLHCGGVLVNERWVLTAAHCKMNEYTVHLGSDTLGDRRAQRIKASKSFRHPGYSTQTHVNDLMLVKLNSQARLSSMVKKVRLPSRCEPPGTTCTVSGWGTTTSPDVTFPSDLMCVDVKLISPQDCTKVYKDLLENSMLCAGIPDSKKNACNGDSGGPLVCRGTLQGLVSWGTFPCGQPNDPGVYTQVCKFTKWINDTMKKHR
PROTOCOL SUMMARY: SCCE Inhibitor Test (chromogenic substrate S-2586, absorbance at 405 nm)
Type: biochemical
SETTINGS: 1 h; 10 μM compound
REPORTED ENDPOINT: remaining activity at 10 µM (%)

Study these solved cases before continuing.
O=c1oc(-c2ccc(F)cc2)nc2ccsc12
10
O=c1oc(-c2cccs2)nc2ccccc12
23
COc1cc2nc(-c3ccccc3I)oc(=O)c2cc1OC
0
COc1cc2nc(-c3ccc(NC(C)=O)cc3)oc(=O)c2cc1OC
52
O=c1oc(-c2cc([N+](=O)[O-])ccc2Cl)nc2ccccc12
22
O=c1oc(-c2ccccc2O)nc2ccccc12
32
O=c1oc(-c2ccccc2)nc2ccsc12
9
Cc1cc2c(=O)oc(-c3cccc4ccccc34)nc2s1
4
O=c1oc(-c2ccncc2)nc2ccccc12 [Compound I-8, 2-Pyridin-4-yl-benzo[d][1,3]oxazin-4-one]
24
O=c1oc(-c2ccccc2Cl)nc2ccsc12
1

[P] O=c1oc(-c2ccccc2)nc2ccccc12 [Compound I-1, 2-Phenyl-benzo[d][1,3]oxazin-4-one]
[Q] COc1cc2nc(-c3ccc([N+](=O)[O-])cc3Cl)oc(=O)c2cc1OC
Incoming: When the recorded remaining activity at 10 µM values are compared, which is smaller: that of P or that of Q ? To answer, give the label that identifies your chosen option.
Outgoing: Q

====

SYSTEM NAME: Recombinant active human SCCE (Homo sapiens, UniProt P49862)
Construct: made in house; host or cells: murine C127 cells transfected with a BPV vector (murine MT promoter)
PROTOCOL SUMMARY: SCCE Inhibitor Test (chromogenic substrate S-2586, absorbance at 405 nm)
Assay type: biochemical
SETTINGS: 1 h; 1 μM compound
REPORTED ENDPOINT: remaining activity at 1 µM (%)

O=c1oc(-c2ccc([N+](=O)[O-])cc2Cl)nc2cc(Cl)ccc12
15
O=c1oc(-c2cccs2)nc2sc3c(c12)CCCC3
52
O=c1oc(-c2ccccc2F)nc2sc3c(c12)CCCC3
7

[1] CC(=O)Oc1ccc(-c2nc3ccccc3c(=O)o2)cc1
[2] O=c1nc(-c2ccco2)oc2ccc(Cl)cc12
[3] CCc1cc2c(=O)oc(-c3ccccc3C)nc2s1
Incoming: Descending sort on remaining activity at 1 µM required. Would you mind listing the labels in the order asked for?
Outgoing: 1, 2, 3

meta.source: patent US7872052B2
